Below: a set of entries, each annotated with reported SILAC ratio, Tmed7.
Target: AEA-DA lipid probe targets in Neuro2a cells (Mus musculus)
Sequence (D3YZZ5 35-224): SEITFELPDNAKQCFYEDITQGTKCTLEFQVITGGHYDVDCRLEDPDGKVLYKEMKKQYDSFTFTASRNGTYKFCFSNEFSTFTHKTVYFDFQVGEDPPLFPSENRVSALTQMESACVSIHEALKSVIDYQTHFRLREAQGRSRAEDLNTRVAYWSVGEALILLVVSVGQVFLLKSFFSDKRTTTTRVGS
Conditions: competitor 25 μM

O=C(/C=C/c1cccnc1)NCCCCC1CCN(C(=O)c2ccccc2)CC1 [FK-866, reference compound]: 1.1

Q. What does the data say about its SILAC ratio, Tmed7? Entry: CN1CCN(C(=O)c2c(-c3ccccc3)c3cc([N+](=O)[O-])ccc3n2C)CC1 [KML110]
A. 1.6

Q. Note, next up: C=CCN(C)CCCCCCOc1ccc(C(=O)c2ccc(Br)cc2)c(F)c1 [Ro 48-8071, reference compound]
A. 1.1

Q. Also need CN1CCN(C(=O)c2[nH]c3ccc([N+](=O)[O-])cc3c2-c2ccccc2)CC1 [MJN228] , thanks.
A. 1.5
